Assay: qHTS Assay for Lipid Storage Modulators in Drosophila S3 Cells
Details: BODIPY lipid droplet fluorescence, 18-24 h, cells fed with added oleic acid; series mostly up to 46.1 µM
Among all 320,000 compounds or so, about 2,100 (0.66%) were called active. Not shown: some 53% with an inconclusive outcome. The call rests on the fitted dose curve; in most records, active means well fitted inhibition curve with a large enough effect in the signal ratio, with a control signal flat (not every such curve was filed as active); inconclusive means small, poorly fitted or top-dose-only effect, or effect the other way, or a change in a side signal; inactive means flat fitted curve, though single readings scatter; the % refers to the signal ratio. The sample holds actives, similar compounds and a random draw of the others, so the mix is not that of the screen.
Form entry, call: pick from active, inactive

I would be grateful if you could indicate the recorded call for "COc1ccc(C2N=C(c3ccccc3)NC(c3ccccc3)=N2)cc1" . inactive

I would be grateful if you could indicate the recorded call for COc1ccc(CN2C(=O)c3cccnc3C2=O)cc1S(=O)(=O)NC1CCCCC1C (configuration not stated) . inactive

I would be grateful if you could indicate the recorded call for "Cn1c(CNC(=O)OC(C)(C)C)nnc1SCc1c(Cl)cccc1Cl" . inactive

I would be grateful if you could indicate the recorded call for "COCCN(C(=O)c1ccccc1F)c1nc(-c2ccc(OC)cc2)cs1" . inactive

I would be grateful if you could indicate the recorded call for CCCCOc1ccc(C(=O)N2CCNC(=O)C2CC(=O)OC(C)C)cc1 (configuration not stated) . inactive

I would be grateful if you could indicate the recorded call for "C=CCn1c(O)c(C=Nc2ccccc2)sc1=S" . inactive

I would be grateful if you could indicate the recorded call for "COC(=O)c1ccc(COc2ccccc2/C=N/NS(=O)(=O)c2ccccc2)cc1" . inactive

I would be grateful if you could indicate the recorded call for "COCCN(C(=O)c1ccccc1F)c1nnc(-c2ccc(OC)cc2)s1" . active

I would be grateful if you could indicate the recorded call for "COc1ccc(N2C(=S)N=C(Nc3cccc(C)c3)C23CCCCC3)cc1" . inactive

I would be grateful if you could indicate the recorded call for "CCN(CC)S(=O)(=O)c1ccc(N2CCCC2)c(NS(=O)(=O)c2ccc(OC)cc2)c1" . inactive

I would be grateful if you could indicate the recorded call for "CCCN1CCc2c(sc(NC(=S)NC(=O)c3ccccc3)c2C#N)C1" . inactive

I would be grateful if you could indicate the recorded call for "CN1CCc2c(sc(NC(=O)c3ccc(C(=O)c4ccccc4)cc3)c2C(N)=O)C1" . inactive

I would be grateful if you could indicate the recorded call for "CC(C)(/C=N/O)N(O)C=C1C=CC(=O)C=C1" . inactive

I would be grateful if you could indicate the recorded call for CCOC(=O)C1CCN(C(=O)CC(NS(=O)(=O)c2ccc(OC)cc2)C(C)C)CC1 (configuration not stated) . inactive

I would be grateful if you could indicate the recorded call for "COc1ccc(CN2C(=O)c3cccnc3C2=O)cc1S(=O)(=O)NC(C)C" . inactive

I would be grateful if you could indicate the recorded call for "CCOC(=O)NC(=O)CSc1cc(C)c2cc(C)cc(C)c2n1" . inactive

I would be grateful if you could indicate the recorded call for "CCN(c1cccc(C)c1)S(=O)(=O)c1cc(CN2C(=O)c3cccnc3C2=O)ccc1OC" . active

I would be grateful if you could indicate the recorded call for "COCCN(C(=O)c1ccco1)c1nnc(-c2ccc(F)cc2)s1" . inactive

I would be grateful if you could indicate the recorded call for "COC(=O)c1c(NC(=O)c2ccc(N(C)S(=O)(=O)c3ccc(C)cc3)cc2)sc2c1CCCC2" . inactive

I would be grateful if you could indicate the recorded call for "C/C(=N\NC(=O)c1nnn(-c2nonc2N)c1CSc1ccccc1)c1ccco1" . inactive

I would be grateful if you could indicate the recorded call for "CCCCN(C(=O)CCC(=O)OCC(=O)NCc1ccccc1)c1c(N)n(CCC)c(=O)[nH]c1=O" . inactive

I would be grateful if you could indicate the recorded call for "COc1ccccc1C(=O)NC(=O)COC(=O)c1oc2ccccc2c1C" . inactive

====

Assay: qHTS Assay for Lipid Storage Modulators in Drosophila S3 Cells
Conditions: BODIPY lipid droplet fluorescence, 18-24 h, cells fed with added oleic acid; series mostly up to 46.1 µM
The campaign covered roughly 320,000 compounds. About 2,100 (0.66%) were called active. Not shown: some 53% with an inconclusive outcome. Calls follow the shape of the dose curve; as a rule, active = well fitted inhibition curve with a large enough effect in the signal ratio, with a control signal flat (not every such curve was filed as active); inconclusive = small, poorly fitted or top-dose-only effect, or effect the other way, or a change in a side signal; inactive = flat fitted curve, though single readings scatter; the % refers to the signal ratio. The full list was thinned out, with actives kept by preference.
Form entry, call: pick from t = active, f = inactive

I would be grateful if you could indicate the recorded call for "COc1ccc(OC)c(NC(=O)CSc2ncccc2C(=O)O)c1" . f

I would be grateful if you could indicate the recorded call for "CCCC(=O)Nc1ccc2oc(=O)ccc2c1" . f

I would be grateful if you could indicate the recorded call for "CCCCCNC(=O)c1cccnc1SCC(=O)Nc1ccccc1OC" . f

I would be grateful if you could indicate the recorded call for "C=CCN1C(=O)/C(=C\c2ccc(Cl)cc2)N=C1SCC(=O)NC1CCCCC1" . f

I would be grateful if you could indicate the recorded call for "COc1ccc(CCNC(=O)C(=O)N2CCCCC2)cc1OC" . f

I would be grateful if you could indicate the recorded call for "Cc1cc(OCCCn2cnc3ccccc3c2=O)ccc1[N+](=O)[O-]" . f

I would be grateful if you could indicate the recorded call for "Cc1ccc2nc(-c3ccccc3)c(-c3ccccc3)nc2c1" . f

I would be grateful if you could indicate the recorded call for "CN(C(=O)CCn1c(=S)oc2ccccc21)c1ccc(F)cc1" . f

I would be grateful if you could indicate the recorded call for "O=C(CN1CC(=O)Nc2ccccc21)NCCc1ccc(Cl)cc1Cl" . f

I would be grateful if you could indicate the recorded call for "CCc1ccc(N(CC(=O)NC(C)(C)C)C(=O)CCC(=O)Nc2ccccn2)cc1" . f

I would be grateful if you could indicate the recorded call for "O=C(CN1C(=O)C(=O)N(C2CCCC2)C1=O)NCCc1ccc(Cl)cc1Cl" . t

====

Experiment: qHTS Assay for Lipid Storage Modulators in Drosophila S3 Cells
Conditions: BODIPY lipid droplet fluorescence, 18-24 h, cells fed with added oleic acid; series mostly up to 46.1 µM
About 2,100 (0.66%) of roughly 320,000 compounds were called active. Another 53% or so got no clear call; they are omitted. The call rests on the fitted dose curve; in most records, active means well fitted inhibition curve with a large enough effect in the signal ratio, with a control signal flat (not every such curve was filed as active); inconclusive means small, poorly fitted or top-dose-only effect, or effect the other way, or a change in a side signal; inactive means flat fitted curve, though single readings scatter; the % refers to the signal ratio. The sample holds actives, similar compounds and a random draw of the others, so the mix is not that of the screen.
Form entry, call: pick from Yes for active, No for inactive

I would be grateful if you could indicate the recorded call for COc1ccc(C2CC(c3cccs3)=NN2C(=O)c2ccccc2)cc1OC (centres undefined) . No

I would be grateful if you could indicate the recorded call for CCCOc1ccccc1C(=O)N(Cc1ccco1)C1CCS(=O)(=O)C1 (centres undefined) . No

I would be grateful if you could indicate the recorded call for "O=C(NCC1CC1)c1onc(CSc2nc3ccccc3[nH]2)c1C(=O)NCC1CC1" . Yes

I would be grateful if you could indicate the recorded call for "Cc1cc(C)nc(NC(C)(C)C(=O)O)n1" . No

I would be grateful if you could indicate the recorded call for "COc1cccc2cc(C(=O)OCc3ccccc3)c(=O)oc12" . Yes

I would be grateful if you could indicate the recorded call for COc1ccc(C2=NN(C(=O)CSc3ncccn3)C(c3ccc(OC)cc3)C2)cc1 (centres undefined) . No

I would be grateful if you could indicate the recorded call for "CCSc1nc(-c2ccccc2)c2cc(Cl)ccc2n1" . No

I would be grateful if you could indicate the recorded call for CCC(C)C(NC(=O)c1ccc(Cl)cc1)C(=O)O (centres undefined) . No

I would be grateful if you could indicate the recorded call for "CC(=O)N(Cc1ccco1)C1(C(=O)NC2CCCC2)CCCCC1" . Yes

I would be grateful if you could indicate the recorded call for "CC(=O)N(Cc1ccco1)C1(C(=O)NC2CCCCC2)CCCCC1" . No

I would be grateful if you could indicate the recorded call for "CCc1ccccc1NC(=S)N(CCN1CCCCC1)Cc1ccco1" . No

I would be grateful if you could indicate the recorded call for CC(=O)N1N=C(c2ccccc2OC(=O)/C=C/c2ccccc2)CC1c1ccccc1 (centres undefined) . No

I would be grateful if you could indicate the recorded call for "COc1cccc2cc(C(=O)Oc3ccccc3)c(=O)oc12" . No

I would be grateful if you could indicate the recorded call for "COc1cccc2cc(C(=O)NCCc3ccccc3)c(=O)oc12" . No

I would be grateful if you could indicate the recorded call for "Cc1cc(C)c(Nc2ncnc(N)n2)c(C)c1" . No

I would be grateful if you could indicate the recorded call for COc1ccc(C2CC(c3ccccc3)=NN2C(=O)CSc2ncccn2)cc1 (centres undefined) . Yes

I would be grateful if you could indicate the recorded call for CC12CCC(c3c(C(=O)O)nn(-c4ccc(F)cc4)c31)C2(C)C (centres undefined) . Yes

I would be grateful if you could indicate the recorded call for CC(C)OCCCNC(=O)C(NC(=O)c1ccc(Cl)cc1)C(C)C (centres undefined) . No

I would be grateful if you could indicate the recorded call for "O=[N+]([O-])c1cccc(OCCN2CCC(Cc3ccccc3)CC2)c1" . No

I would be grateful if you could indicate the recorded call for "O=C(NCC1CC1)c1onc(CSc2ccc(F)cc2)c1C(=O)NCC1CC1" . No

I would be grateful if you could indicate the recorded call for "C=CCNC(=O)c1onc(CSc2nc3ccccc3[nH]2)c1C(=O)NCC=C" . No

I would be grateful if you could indicate the recorded call for "Cc1cc(C)nc(NC(=O)/C=C/c2cccs2)c1" . No

I would be grateful if you could indicate the recorded call for "O=C1[C@@H]2[C@H](C(=O)N1n1cnnc1)[C@H]1C=C[C@@H]2C1" . No

I would be grateful if you could indicate the recorded call for O=C(Cc1cccs1)N(CC1CCCO1)C1(C(=O)NC2CCCC2)CCCCC1 (centres undefined) . No

I would be grateful if you could indicate the recorded call for "Cc1cc(C)cc(SCc2noc(C(=O)NCc3ccccc3)c2C(=O)NCc2ccccc2)c1" . No

I would be grateful if you could indicate the recorded call for "COc1ccc(C(=O)NCCNc2nc3ccc(C)cc3cc2C#N)cc1" . Yes

I would be grateful if you could indicate the recorded call for "CC(C)OC(=O)CSc1nc2c(cc1C#N)CCCCC2" . No

I would be grateful if you could indicate the recorded call for COc1ccc(C2CC(c3cccs3)=NN2C(=O)COC(=O)C2CCCCC2)cc1OC (centres undefined) . No

I would be grateful if you could indicate the recorded call for O=C1NC(=O)C(CC(=O)N(Cc2ccco2)C2(C(=O)NC3CCCC3)CCCCC2)N1 (centres undefined) . No

I would be grateful if you could indicate the recorded call for "Fc1cnc(N2CCOCC2)nc1N1CCc2ccccc21" . No

I would be grateful if you could indicate the recorded call for "COCCNC(=O)c1onc(CSc2nc3ccccc3[nH]2)c1C(=O)NCCOC" . No

I would be grateful if you could indicate the recorded call for "COc1ccc(/C(C)=N/NC(=S)NCCc2ccccc2)cc1" . No

I would be grateful if you could indicate the recorded call for "O=C(NCc1ccccc1)c1onc(CSc2nc3ccccc3[nH]2)c1C(=O)NCc1ccccc1" . Yes

I would be grateful if you could indicate the recorded call for COc1ccc(C2CC(c3ccccc3)=NN2C(=O)COC(=O)CNC(=O)c2ccccc2)cc1 (centres undefined) . Yes

I would be grateful if you could indicate the recorded call for "CSc1nc(-c2ccc(C)cc2)nc(C(Cl)Cl)n1" . No

I would be grateful if you could indicate the recorded call for "COc1cc(C(c2c(C)[nH][nH]c2=O)c2c(C)[nH][nH]c2=O)ccc1OS(=O)(=O)c1ccccc1" . No

I would be grateful if you could indicate the recorded call for CC12CCC(c3c(C(=O)O)nn(-c4ccccc4)c31)C2(C)C (centres undefined) . No

I would be grateful if you could indicate the recorded call for "COc1ccc(C(=O)NCCNc2nc3ccc(C)cc3cc2C#N)cc1OC" . No

I would be grateful if you could indicate the recorded call for COc1cccc(-c2cc(C(=O)NCC3CCCO3)c3ccccc3n2)c1 (centres undefined) . No

I would be grateful if you could indicate the recorded call for COc1ccc(C2CC(c3ccc(OC)cc3OC(C)=O)=NN2C(=O)c2ccccc2)cc1 (centres undefined) . No

I would be grateful if you could indicate the recorded call for "O=[N+]([O-])c1ccc(N2CCN(CCO)CC2)cc1Sc1nc2ccccc2[nH]1" . No

I would be grateful if you could indicate the recorded call for "Clc1cc(CSc2ccccc2)nc(-c2ccccc2)n1" . No

I would be grateful if you could indicate the recorded call for "O=C(CSc1nnc2c(Cl)cc(Cl)cn12)N1CCN(S(=O)(=O)c2ccccc2)CC1" . No

I would be grateful if you could indicate the recorded call for COc1cc(C2CC(c3cccs3)=NN2C(=O)CCl)ccc1OC(F)F (centres undefined) . Yes

The reported measurements were obtained from PubChem BioAssay AID2685.
